pIC50: −log10 of the molar value.
Here is a set of compounds with reported pIC50 for Mcl-1 (Homo sapiens), compiled from the literature.
test.readout: pIC50

Here is how some compounds turned out for pIC50.
Cc1oc2nc1CSc1cc(c3ccccc3c1)OCCCc1c(C(=O)O)n(C)c3c(c(Cl)ccc13)-c1c(nn3c1CCC3)CSC2    7.97
Cn1nc2cc1CSc1cc(c3ccccc3c1)OCCCc1c(C(=O)O)n(C)c3c(c(Cl)ccc13)-c1c(nn3c1CN(S(C)(=O)=O)CC3)CSC2    7.83
CNCCO[C@H]1C2=C[C@@H](C2)[C@H](C)[C@@H](C)S(=O)(=O)NC(=O)c2ccc3c(c2)N(C[C@@H]2CC[C@H]21)C[C@@]1(CCCc2c1ccc(Cl)c2F)CO3    7.80
C[C@@H]1[C@@H](C)S(=O)(=O)NC(=O)c2ccc3c(c2)N(C[C@@H]2CC[C@H]2[C@@H](OCCN2C[C@@H](C)N(C)[C@@H](C)C2)C2=C[C@H]1C2)C[C@@]1(CCCc2c1ccc(Cl)c2F)CO3    7.70
C[C@@H]1[C@@H](C)S(=O)(=O)NC(=O)c2ccc3c(c2)N(C[C@@H]2CC[C@H]2[C@@H](OCCN(C)S(C)(=O)=O)C2=C[C@H]1C2)C[C@@]1(CCCc2c1ccc(Cl)c2F)CO3    7.82

A = CO[C@@]1(CN2CCN3CCOC[C@@H]3C2)C2=C[C@@H](C2)[C@H](C)[C@@H](C)S(=O)(=O)NC(=O)c2ccc3c(n2)N(C[C@@H]2CC[C@H]21)C[C@@]1(CCCc2c1ccc(Cl)c2F)CO3
B = CNS(=O)(=O)N1Cc2cc(n(C)n2)CSc2cc(c3ccc(F)cc3c2)OCCCn2c(C(=O)O)c(C)c3c(c(Cl)ccc32)-c2c(nn(C)c2C)C1
C = Cc1c(C(=O)O)n2c3ccc(Cl)c(c13)-c1c(nn(C)c1C)CSCc1cc(n(C)n1)CSc1cc(c3ccc(F)cc3c1)OCCC2 (atropisomer, axis not shown)
Please list the entries, largest pIC50 first. Please express your ranking as an ordered list of the labels.
B, A, C
(B: 8.15, A: 7.82, C: 5.49)
